Target: hNav1.7 (Homo sapiens (Human))
Sequence (Q15858 other isoform, or with tags, fused parts or gaps): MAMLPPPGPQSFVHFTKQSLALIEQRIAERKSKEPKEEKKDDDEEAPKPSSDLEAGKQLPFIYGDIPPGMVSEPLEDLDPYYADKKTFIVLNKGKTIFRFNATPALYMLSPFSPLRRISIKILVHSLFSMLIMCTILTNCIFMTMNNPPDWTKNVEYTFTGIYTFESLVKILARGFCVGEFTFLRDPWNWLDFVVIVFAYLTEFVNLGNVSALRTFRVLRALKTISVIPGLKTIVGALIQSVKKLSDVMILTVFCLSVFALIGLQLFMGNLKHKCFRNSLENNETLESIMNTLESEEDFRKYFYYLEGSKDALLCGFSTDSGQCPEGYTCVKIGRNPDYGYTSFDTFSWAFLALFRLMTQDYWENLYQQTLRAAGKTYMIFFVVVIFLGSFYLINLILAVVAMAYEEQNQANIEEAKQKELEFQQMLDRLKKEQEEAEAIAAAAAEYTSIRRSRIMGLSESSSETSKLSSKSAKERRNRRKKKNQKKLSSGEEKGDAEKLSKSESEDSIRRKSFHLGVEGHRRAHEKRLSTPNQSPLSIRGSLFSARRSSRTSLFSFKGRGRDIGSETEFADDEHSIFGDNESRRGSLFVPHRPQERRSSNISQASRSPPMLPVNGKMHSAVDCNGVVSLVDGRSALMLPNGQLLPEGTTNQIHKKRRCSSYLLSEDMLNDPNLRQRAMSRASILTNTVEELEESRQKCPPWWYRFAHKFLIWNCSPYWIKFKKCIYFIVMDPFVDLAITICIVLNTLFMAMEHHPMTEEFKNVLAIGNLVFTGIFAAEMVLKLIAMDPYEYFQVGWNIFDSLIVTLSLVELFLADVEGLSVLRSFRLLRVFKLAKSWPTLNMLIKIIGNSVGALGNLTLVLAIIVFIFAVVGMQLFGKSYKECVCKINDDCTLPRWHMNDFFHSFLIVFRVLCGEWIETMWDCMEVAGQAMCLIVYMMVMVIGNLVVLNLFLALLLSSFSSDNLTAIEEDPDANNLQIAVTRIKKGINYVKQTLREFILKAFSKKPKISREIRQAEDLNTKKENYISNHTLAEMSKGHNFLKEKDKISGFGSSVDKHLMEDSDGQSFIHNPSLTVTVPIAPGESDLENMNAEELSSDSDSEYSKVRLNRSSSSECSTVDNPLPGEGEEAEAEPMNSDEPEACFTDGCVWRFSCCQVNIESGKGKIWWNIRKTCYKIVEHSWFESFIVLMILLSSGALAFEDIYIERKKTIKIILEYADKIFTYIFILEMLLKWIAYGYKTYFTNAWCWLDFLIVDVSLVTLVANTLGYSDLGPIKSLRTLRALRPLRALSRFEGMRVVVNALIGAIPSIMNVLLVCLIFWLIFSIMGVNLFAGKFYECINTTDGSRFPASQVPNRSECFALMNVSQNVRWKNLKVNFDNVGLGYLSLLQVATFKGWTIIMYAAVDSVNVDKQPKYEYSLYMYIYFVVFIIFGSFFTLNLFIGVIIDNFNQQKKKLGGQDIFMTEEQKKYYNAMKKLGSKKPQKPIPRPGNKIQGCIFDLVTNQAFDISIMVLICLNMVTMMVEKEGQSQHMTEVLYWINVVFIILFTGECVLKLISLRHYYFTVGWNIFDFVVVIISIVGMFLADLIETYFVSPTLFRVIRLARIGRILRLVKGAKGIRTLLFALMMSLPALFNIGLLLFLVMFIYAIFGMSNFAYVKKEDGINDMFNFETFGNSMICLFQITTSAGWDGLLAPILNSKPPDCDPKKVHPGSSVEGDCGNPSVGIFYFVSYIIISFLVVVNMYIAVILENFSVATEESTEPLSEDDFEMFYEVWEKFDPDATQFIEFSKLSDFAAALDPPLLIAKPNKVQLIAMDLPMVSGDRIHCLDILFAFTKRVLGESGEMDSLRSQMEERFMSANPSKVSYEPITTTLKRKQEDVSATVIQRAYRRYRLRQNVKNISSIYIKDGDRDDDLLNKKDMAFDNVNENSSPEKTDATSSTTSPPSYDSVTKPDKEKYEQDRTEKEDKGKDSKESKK
Assay: Patch voltage clamp electrophysiology assay (EP), Syncropatch 384PE, CHO cells expressing Nav1.7
Type: cell-based
Details: holding potential -50 mV; […] compound incubation; read-out: EP_SP hNav1.7 (Ex. 243B) IC50
Where a name gives a salt, the structure may show the parent alone.
Answer each item with its documented log10 IC50.
Transform log10 | Measure IC50 | Unit nM

Task item: Please give the measured log10 IC50 for this compound: O=S(=O)(Nc1nccs1)c1cc(Cl)c(N[C@H]2CCCC[C@@H]2N2CCCC2)cc1F
Reply: 0.99

Task item: Please give the measured log10 IC50 for this compound: CN(C)[C@H]1C[C@@H](c2ccccc2)CC[C@@H]1Nc1cc(F)c(S(=O)(=O)Nc2ccncn2)cc1Cl
Reply: 1.02

Task item: Please give the measured log10 IC50 for this compound: CN(C1CNC1)[C@H]1CCCC[C@@H]1Nc1cc(F)c(S(=O)(=O)Nc2ccncn2)cc1Cl
Reply: 0.76

Task item: Please give the measured log10 IC50 for this compound: COCCN(C)[C@H]1CCCC[C@@H]1Nc1cc(F)c(S(=O)(=O)Nc2nccs2)cc1Cl [Example 32, formate]
Reply: 1.39

Task item: Please give the measured log10 IC50 for this compound: CN(C)[C@H]1C[C@@H](c2cccc(OC(F)(F)F)c2)CC[C@@H]1Nc1cc(F)c(S(=O)(=O)Nc2ccncn2)cc1Cl
Reply: -0.19

Task item: Please give the measured log10 IC50 for this compound: CN(C)[C@H]1C[C@H](F)CC[C@@H]1Nc1cc(F)c(S(=O)(=O)Nc2nccs2)cc1Cl
Reply: 1.60

Task item: Please give the measured log10 IC50 for this compound: O=S(=O)(Nc1nccs1)c1cc(Cl)c(N[C@H]2CCCC[C@@H]2N2CCC[C@@H](CO)C2)cc1F [Example 169, formate]
Reply: 0.52

Task item: Please give the measured log10 IC50 for this compound: CN([C@H]1C[C@@H](O)C1)[C@H]1CCCC[C@@H]1Nc1cc(F)c(S(=O)(=O)Nc2nccs2)cc1Cl [Example 156, formate]
Reply: 1.28

Task item: Please give the measured log10 IC50 for this compound: CN(C)CC(=O)N(C)[C@H]1CCCC[C@@H]1Nc1cc(F)c(S(=O)(=O)Nc2nccs2)cc1Cl
Reply: 1.27

Task item: Please give the measured log10 IC50 for this compound: CN(C)[C@@H]1C[C@H]2[C@@H](C[C@H]1Nc1cc(F)c(S(=O)(=O)Nc3nccs3)cc1Cl)C2(Cl)Cl [Example 197, formate]
Reply: 0.59

Task item: Please give the measured log10 IC50 for this compound: CN(C1CCC1)[C@H]1C[C@@H](C(F)(F)F)CC[C@@H]1Nc1cc(F)c(S(=O)(=O)Nc2ccncn2)cc1Cl
Reply: 1.69

Task item: Please give the measured log10 IC50 for this compound: CN(CCCO)[C@H]1CCCC[C@@H]1Nc1cc(F)c(S(=O)(=O)Nc2cccc(F)n2)cc1Cl
Reply: 1.53

Task item: Please give the measured log10 IC50 for this compound: N#C[C@H]1CCN([C@H]2CCCC[C@@H]2Nc2cc(F)c(S(=O)(=O)Nc3nccs3)cc2Cl)C1 [Example 162, formate]
Reply: 0.93

Task item: Please give the measured log10 IC50 for this compound: N#CC1CCN([C@H]2CCCC[C@@H]2Nc2cc(F)c(S(=O)(=O)Nc3nccs3)cc2Cl)CC1 [Example 149, formate]
Reply: 1.10

Task item: Please give the measured log10 IC50 for this compound: CN(C)[C@H]1C[C@@H](c2cccc(C(F)(F)F)c2)CC[C@@H]1Nc1cc(F)c(S(=O)(=O)Nc2ccon2)cc1Cl
Reply: -0.07

Task item: Please give the measured log10 IC50 for this compound: CN(C)[C@H]1C[C@@H]2[C@H](C[C@@H]1Nc1cc(F)c(S(=O)(=O)Nc3nccs3)cc1Cl)C2(Cl)Cl [Example 194, formate]
Reply: 2.60

Task item: Please give the measured log10 IC50 for this compound: O=S(=O)(Nc1ccncn1)c1cc(Cl)c(N[C@H]2CCCC[C@@H]2N2CCC[C@](F)(CO)C2)cc1F
Reply: 1.80

Task item: Please give the measured log10 IC50 for this compound: O=S(=O)(Nc1cccc(F)n1)c1cc(Cl)c(N[C@@H]2CCCC[C@H]2N2C[C@@H]3[C@@H](CO)[C@@H]3C2)cc1F
Reply: 3.70
